All figures here come from patent US20230265169A1.

Target system: T1, MERS-CoV spike protein on live MERS-CoV (EMC, KNIH-002, KNIH-016 and KNIH-042 strains) (MERS-CoV)
T1 chain: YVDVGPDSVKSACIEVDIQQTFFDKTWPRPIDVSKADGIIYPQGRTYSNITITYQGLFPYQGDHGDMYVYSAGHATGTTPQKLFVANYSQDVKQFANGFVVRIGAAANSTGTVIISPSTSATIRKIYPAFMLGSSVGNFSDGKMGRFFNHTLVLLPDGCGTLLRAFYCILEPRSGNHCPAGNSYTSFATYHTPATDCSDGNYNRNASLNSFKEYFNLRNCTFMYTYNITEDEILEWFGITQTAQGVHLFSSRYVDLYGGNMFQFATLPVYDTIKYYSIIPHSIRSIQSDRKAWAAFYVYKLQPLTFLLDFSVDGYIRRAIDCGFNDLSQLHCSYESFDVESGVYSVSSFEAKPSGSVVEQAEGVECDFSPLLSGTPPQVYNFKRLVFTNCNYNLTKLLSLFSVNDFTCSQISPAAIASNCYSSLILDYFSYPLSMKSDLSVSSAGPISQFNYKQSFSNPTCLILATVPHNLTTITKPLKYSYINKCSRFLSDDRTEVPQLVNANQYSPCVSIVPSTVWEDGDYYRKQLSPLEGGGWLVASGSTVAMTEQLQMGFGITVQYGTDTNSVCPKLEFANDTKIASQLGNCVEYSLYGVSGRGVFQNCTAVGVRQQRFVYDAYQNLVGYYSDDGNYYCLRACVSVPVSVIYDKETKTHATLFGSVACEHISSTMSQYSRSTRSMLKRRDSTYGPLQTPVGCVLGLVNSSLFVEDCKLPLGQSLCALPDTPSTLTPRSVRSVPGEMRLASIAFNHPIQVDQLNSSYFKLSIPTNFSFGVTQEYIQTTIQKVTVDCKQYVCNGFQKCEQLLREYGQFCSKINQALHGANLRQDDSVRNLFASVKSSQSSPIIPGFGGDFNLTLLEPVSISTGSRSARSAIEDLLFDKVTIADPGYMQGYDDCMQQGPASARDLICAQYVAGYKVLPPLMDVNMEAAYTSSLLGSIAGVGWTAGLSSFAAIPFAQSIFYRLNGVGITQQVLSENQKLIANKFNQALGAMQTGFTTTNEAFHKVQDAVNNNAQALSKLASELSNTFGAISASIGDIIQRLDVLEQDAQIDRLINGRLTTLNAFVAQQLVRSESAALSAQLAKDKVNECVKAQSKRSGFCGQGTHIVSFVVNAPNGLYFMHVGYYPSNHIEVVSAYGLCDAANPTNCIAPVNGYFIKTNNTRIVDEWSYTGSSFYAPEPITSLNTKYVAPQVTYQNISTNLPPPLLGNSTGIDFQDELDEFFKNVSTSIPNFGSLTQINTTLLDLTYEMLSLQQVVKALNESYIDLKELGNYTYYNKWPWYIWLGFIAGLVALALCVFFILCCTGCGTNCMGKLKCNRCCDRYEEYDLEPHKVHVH
Method description: cell-based or functional assay
Measured ND50 antibody conc. (PRNT with MERS-CoV) by item

Below are worked cases with known answers.
>>> experimental_value("90-C4 antibody (antibody, V domains shown) VH: QVQLQESGPGLVKPSGTLSLTCAVSGGSINSSNWWSWVRQPPGKGLEWIGEIYYSGSTNYNPSLKSRVTTSVDNSKNQFSLKLSSVTAADTAVYYCATFDSGGYNPNWFDPWGQGTLVTVSS VL: QSALTQPPSVSGAPGQRVTISCTGSSSSIGAGYDVHWYQQLPGTAPKLLIYGNSNRPSGVPDRFSGSKSGTSASLAITGLQAEDEADYYCQSYDSSLSGYVFGTGTKVTVLG")
"12.8 µg/mL"
>>> experimental_value("90-B7 antibody (antibody, V domains shown) VH: EVQLLESGGGLVKPGGSLRLSCAASGFTFGSYSMTWVRQAPGKGLEWVSSISSSSSYIYYADSVKGRFTISRDNAKNSLFLQMNSLRAEDTAVYYCARGNGYCSHNSCYKIGVWFDPWGQGTLVTVSS VL: QAVVTQPPSVSAAPGQKVTISCSGSSSNIGNNYVSWYQQLPGTAPKLLIYDNNKRPSGIPDRFSGSKSGTSATLGITGLQTGDEADYYCGTWDSSLSAFVFGTGTKVTVLG")
"0.67 µg/mL"

**Query** # query: ND50 antibody conc. (PRNT with MERS-CoV) of entry 90-E6 antibody (antibody, V domains shown) VH: EVQLVESGGGLVQPGRSLRLSCAASGFTFDDHAMHWVRQAPGKGLEWVSGFSWNSGSIGYADSVKGRFTISRDNAKNSLYLQMNSLRAEDTALYYCAKDRRSDYYFYGMDVWGQGTTVTVSS VL: QSVLTQPPSVSAAPGQKVTISCSGSRSNIGNNYVSWYQQLPGTAPKLLIYDNNKRPSGIPDRFSGSKSGTSATLGITGLQTGDEADYYCGTWDSSLNAGVFGGGTKLTVLG
**Result** 14.8 µg/mL
